# Lookup of reported IC50 keyed by entry
ASSAY_TARGET: Glutamate--cysteine ligase catalytic subunit (Homo sapiens)
Sequence (P48506 whole entry): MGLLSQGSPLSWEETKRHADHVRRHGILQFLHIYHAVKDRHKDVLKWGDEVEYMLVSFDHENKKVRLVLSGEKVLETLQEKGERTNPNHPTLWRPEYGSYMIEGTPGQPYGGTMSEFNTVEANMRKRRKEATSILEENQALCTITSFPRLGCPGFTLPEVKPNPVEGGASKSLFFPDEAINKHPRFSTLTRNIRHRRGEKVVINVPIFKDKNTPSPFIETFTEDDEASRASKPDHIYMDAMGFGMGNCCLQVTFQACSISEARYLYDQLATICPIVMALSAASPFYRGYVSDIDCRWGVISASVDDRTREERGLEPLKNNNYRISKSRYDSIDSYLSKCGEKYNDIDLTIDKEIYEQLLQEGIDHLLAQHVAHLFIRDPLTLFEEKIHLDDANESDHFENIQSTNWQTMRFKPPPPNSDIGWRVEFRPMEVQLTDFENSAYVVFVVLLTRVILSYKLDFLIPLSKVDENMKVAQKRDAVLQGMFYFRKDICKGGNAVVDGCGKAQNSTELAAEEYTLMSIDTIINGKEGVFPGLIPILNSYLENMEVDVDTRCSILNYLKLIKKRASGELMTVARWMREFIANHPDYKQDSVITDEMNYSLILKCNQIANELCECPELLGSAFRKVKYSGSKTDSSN
ASSAY: GCL Enzyme Profiling Assay

As a guide, the following entries are already answered.
[
  {
    "COMPOUND": "N=S(=O)(CC[C@H](N)C(=O)O)CCC(O)(c1ccc(OC2CCCCC2)cc1)C(F)(F)F (some centres not stated)",
    "ASSAY_TARGET": "Glutamate--cysteine ligase catalytic subunit (Homo sapiens)",
    "RESULT": "< 20 µM"
  },
  {
    "COMPOUND": "N=S(=O)(CC[C@H](N)C(=O)O)CCC(O)(c1ccn(-c2ccc(Cl)cc2Cl)n1)C(F)(F)F (some centres not stated)",
    "ASSAY_TARGET": "Glutamate--cysteine ligase catalytic subunit (Homo sapiens)",
    "RESULT": "< 20 µM"
  },
  {
    "COMPOUND": "N=S(=O)(CCC(c1ccc(-c2ccc(Br)cc2)cc1)C(F)(F)F)CC[C@H](N)C(=O)O (some centres not stated)",
    "ASSAY_TARGET": "Glutamate--cysteine ligase catalytic subunit (Homo sapiens)",
    "RESULT": "< 20 µM"
  }
]

Let us move to another entry and its IC50.
Just so you know, measured IC50 for Cn1ncc(-c2ccc(C(O)(CCS(=N)(=O)CC[C@H](N)C(=O)O)C(F)(F)F)cc2)cc1=O (some centres not stated) came out at < 20 µM
